src = patent US20050282840A1

Tgt: p75^NTR receptors (PC12 cells) (Rattus norvegicus, UniProt P07174)
Construct: endogenous in cells; host or cells: PC12 cells
Sequence (P07174 30-425): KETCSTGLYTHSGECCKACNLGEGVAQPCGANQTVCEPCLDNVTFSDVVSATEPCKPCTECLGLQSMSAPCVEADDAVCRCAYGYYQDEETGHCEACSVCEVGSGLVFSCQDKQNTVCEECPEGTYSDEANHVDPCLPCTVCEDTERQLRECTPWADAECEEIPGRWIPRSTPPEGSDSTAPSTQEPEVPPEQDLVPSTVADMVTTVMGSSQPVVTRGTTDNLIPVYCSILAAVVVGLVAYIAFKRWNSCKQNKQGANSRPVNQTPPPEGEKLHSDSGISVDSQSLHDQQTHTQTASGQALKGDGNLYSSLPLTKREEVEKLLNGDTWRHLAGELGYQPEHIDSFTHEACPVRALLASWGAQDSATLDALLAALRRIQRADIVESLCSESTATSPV
Sequence (P23560 129-247 partner): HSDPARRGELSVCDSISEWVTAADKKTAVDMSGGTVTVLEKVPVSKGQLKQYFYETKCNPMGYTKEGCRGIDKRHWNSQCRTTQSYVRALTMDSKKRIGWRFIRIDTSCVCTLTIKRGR
Experimental details: Basic screening assay: binding of 125I-BDNF to PC12 cells
Condition details: read-out: BDNF Activity % Maximal Binding
Readout kind: activity at 50 µM

Example entries begin here.
{"Compound structure": "O=C1NC(=S)NC(=O)C1=Cc1ccc(-c2ccc(C(=O)O)cc2)o1", "activity at 50 µM": "0 to 10%"}
{"Compound structure": "Cc1ccc(-c2ccc(C=C3C(=O)NC(=S)NC3=O)o2)cc1[N+](=O)[O-]", "activity at 50 µM": "> 50%"}
{"Compound structure": "COC(=O)c1ccc(-c2ccc(C=C3C(=O)NC(=S)NC3=O)o2)cc1", "activity at 50 µM": "0 to 10%"}

Prompt line: I am curious: what activity at 50 µM value has been reported for CN1C(=O)NC(=O)C(=Cc2ccc(-c3cccc([N+](=O)[O-])c3)o2)C1=O ?
Response line: 10 to 20%

Prompt line: I am curious: what activity at 50 µM value has been reported for Cc1cc(-c2ccc(C=C3C(=O)NC(=S)NC3=O)o2)c(C)c([N+](=O)[O-])c1 ?
Response line: 0 to 10%

Prompt line: I am curious: what activity at 50 µM value has been reported for O=C1NC(=S)NC(=O)C1=Cc1ccc(-c2ccc([N+](=O)[O-])cc2Br)o1 ?
Response line: 0 to 10%
